- measured_on: AKR1C3 (Homo sapiens)
- Sequence (P42330 1-323): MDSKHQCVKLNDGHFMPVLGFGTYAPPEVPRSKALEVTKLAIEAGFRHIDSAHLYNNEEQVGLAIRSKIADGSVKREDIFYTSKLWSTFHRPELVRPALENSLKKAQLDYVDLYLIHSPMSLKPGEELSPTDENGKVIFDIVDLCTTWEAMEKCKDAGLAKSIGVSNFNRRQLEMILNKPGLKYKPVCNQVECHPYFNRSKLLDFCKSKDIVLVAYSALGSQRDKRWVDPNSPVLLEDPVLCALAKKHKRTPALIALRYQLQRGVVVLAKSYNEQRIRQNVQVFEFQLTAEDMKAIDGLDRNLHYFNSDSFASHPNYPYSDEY
- experimental_protocol: AKR1C3 inhibition in a cell-based system (HEK293 cells transfected with AKR1C3 expression plasmid, coumberon substrate)
- Set-up: expressed in transfected cells; host or cells: HEK293 cells (ATCC)
- setup_conditions: mean values; HEK293 cells transfected with AKR1C3, coumberon 6×10^−6M, 3 h; read-out: Cellular AKR1C3 inhibition IC50
pIC50: −log10 of the molar value.
reported_metric: pIC50

Study these solved cases before continuing.
COc1cncc(C2=CC[C@H]3[C@@H]4CCc5cc(S(=O)(=O)CCCC(=O)O)ccc5[C@H]4CC[C@]23C)c1 [Example 16]
6.27
Cc1cc(C2=CC[C@H]3[C@@H]4CCc5cc(NC(=O)CCC(=O)O)ccc5[C@H]4CC[C@]23C)cnn1 [Example 45]
6.01

(a) CN(c1ccc2c(c1)CC[C@@H]1[C@@H]2CC[C@]2(C)C(c3cncc(F)c3)=CC[C@@H]12)S(=O)(=O)CCC(=O)O [Example 38]
(b) CC(=O)NS(=O)(=O)CCC(=O)N(C)c1ccc2c(c1)CC[C@@H]1[C@@H]2CC[C@]2(C)C(c3cncc(F)c3)=CC[C@@H]12 [Example 31]
(c) C[C@]12CC[C@@H]3c4ccc(S(C)(=N)=O)cc4CC[C@H]3[C@@H]1CC=C2c1cncc(F)c1 (stereo partly drawn) [Example 46]
(d) CC(=O)NS(=O)(=O)CCC(=O)Nc1ccc2c(c1)CC[C@@H]1[C@@H]2CC[C@]2(C)C(c3cncc(F)c3)=CC[C@@H]12 [Example 29]
input: List by increasing pIC50. Output spec: labels arranged per the requested ranking.
output: d, b, a, c

###

- measured_on: AKR1C3 (Homo sapiens, UniProt P42330)
- experimental_protocol: AKR1C3 enzyme inhibition assay (coumberone to coumberol fluorescence)
- Assay type: biochemical
- Parameters: GST (cleaved yes); made in house; host or cells: E. coli
- setup_conditions: mean values; 10 μM NADPH, 0.3 μM coumberone, 3 h at room temperature
reported_metric: IC50 (nM)

CN(CCCO)S(=O)(=O)c1ccc2c(c1)CC[C@@H]1[C@@H]2CC[C@]2(C)C(c3cncc(F)c3)=CC[C@@H]12
2.4

(a) C[C@]12CC[C@@H]3c4ccc(S(C)(=N)=O)cc4CC[C@H]3[C@@H]1CC=C2c1cncc(F)c1 (stereo partly drawn)
(b) C[C@]12CC[C@@H]3c4ccc(NC(=O)CCC(=O)O)cc4CC[C@H]3[C@@H]1CC=C2c1cncnc1
input: Which of the two items, a and b , has the greater recorded IC50? Pick one; state its label.
output: b

###

- measured_on: AKR1C3 (Homo sapiens, UniProt P42330)
- experimental_protocol: AKR1C3 enzyme inhibition assay (coumberone to coumberol fluorescence)
- Format: biochemical
- Design: GST (cleaved yes); made in house; host or cells: E. coli
- setup_conditions: mean values; 10 μM NADPH, 0.3 μM coumberone, 3 h at room temperature
pIC50: −log10 of the molar value.
reported_metric: pIC50

C[C@]12CC[C@@H]3c4ccc(NC(=O)CCC(=O)O)cc4CC[C@H]3[C@@H]1CC=C2c1cncc(F)c1
8.42

(A) CN(CCC(=O)O)S(=O)(=O)c1ccc2c(c1)CC[C@@H]1[C@@H]2CC[C@]2(C)C(c3cncnc3)=CC[C@@H]12
(B) CN(c1ccc2c(c1)CC[C@@H]1[C@@H]2CC[C@]2(C)C(c3cncc(F)c3)=CC[C@@H]12)S(=O)(=O)CCC(=O)O
input: Of A and B , which shows the smaller pIC50 value? Pick one; state its label.
output: A

###

- measured_on: AKR1C3 (Homo sapiens, UniProt P42330)
- experimental_protocol: AKR1C3 enzyme inhibition assay (coumberone to coumberol fluorescence)
- Assay type: biochemical
- Parameters: GST (cleaved yes); made in house; host or cells: E. coli
- setup_conditions: mean values; 10 μM NADPH, 0.3 μM coumberone, 3 h at room temperature
- Protocol: The AKR1C3-inhibitory action of the substances of this invention was measured in the AKR1C3 assay described in the paragraphs which follow. Essentially, the enzyme activity is measured by quantifying the coumberol formed from coumberone (Halim, M., Yee, D., J., and Sames, D., J. A., M. (2008). Chem Soc 130, 14123-14128 and Yee, D., J., Balsanek, V., Bauman, D., R., Penning, T., M., and Sames, D. (2006). Proc Natl Acad Sci USA, 103, 13304-13309). […]
reported_metric: IC50 (nM)

C[C@]12CC[C@@H]3c4ccc(NC(=O)CCCO)cc4CC[C@H]3[C@@H]1CC=C2c1cncc(F)c1 [Example 27]
5

(P) CN(CCCC(=O)O)c1ccc2c(c1)CC[C@@H]1[C@@H]2CC[C@]2(C)C(c3cncc(F)c3)=CC[C@@H]12 [Example 44]
(Q) C[C@]12CC[C@@H]3c4ccc(S(=O)(=O)CCCCO)cc4CC[C@H]3[C@@H]1CC=C2c1cncc(F)c1 [Example 21]
input: Of P and Q , which shows the smaller IC50 value? Pick one; state its label.
output: Q
(Q: 5.3 nM, P: 18.5 nM)

###

- measured_on: AKR1C3 (Homo sapiens, UniProt P42330)
- Sequence (P42330 1-323): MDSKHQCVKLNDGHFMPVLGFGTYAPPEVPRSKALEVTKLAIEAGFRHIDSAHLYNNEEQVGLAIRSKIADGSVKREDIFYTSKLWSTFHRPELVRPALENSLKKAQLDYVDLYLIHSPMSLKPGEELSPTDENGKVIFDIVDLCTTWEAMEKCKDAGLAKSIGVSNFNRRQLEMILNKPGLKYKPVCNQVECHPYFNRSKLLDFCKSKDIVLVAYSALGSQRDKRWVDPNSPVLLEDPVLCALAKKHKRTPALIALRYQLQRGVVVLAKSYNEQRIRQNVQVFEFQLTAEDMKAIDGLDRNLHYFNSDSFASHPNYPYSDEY
- experimental_protocol: AKR1C3 inhibition in a cell-based system (HEK293 cells transfected with AKR1C3 expression plasmid, coumberon substrate)
- Set-up: expressed in transfected cells; host or cells: HEK293 cells (ATCC)
- setup_conditions: mean values; HEK293 cells transfected with AKR1C3, coumberon 6×10^−6M, 3 h; read-out: Cellular AKR1C3 inhibition IC50
reported_metric: IC50 (nM)

C[C@]12CC[C@@H]3c4ccc(NC(=O)CCC(=O)O)cc4CC[C@H]3[C@@H]1CC=C2c1cncc(F)c1
780

(1) C[C@]12CC[C@@H]3c4ccc(S(=O)(=O)CCCC(=O)O)cc4CC[C@H]3[C@@H]1CC=C2c1cncc(C(F)(F)F)c1
(2) Cc1cc(C2=CC[C@H]3[C@@H]4CCc5cc(S(=O)(=O)N(C)CCC(=O)O)ccc5[C@H]4CC[C@]23C)cnn1
(3) CN(CCC(=O)O)S(=O)(=O)c1ccc2c(c1)CC[C@@H]1[C@@H]2CC[C@]2(C)C(c3cncnc3)=CC[C@@H]12
input: List by increasing IC50. Output spec: labels arranged per the requested ranking.
output: 1, 2, 3
(1: 490 nM, 2: 800 nM, 3: 2710 nM)

###

- measured_on: AKR1C3 (Homo sapiens, UniProt P42330)
- experimental_protocol: AKR1C3 inhibition in a cell-based system (HEK293 cells transfected with AKR1C3 expression plasmid, coumberon substrate)
- Parameters: expressed in transfected cells; host or cells: HEK293 cells (ATCC)
- setup_conditions: mean values; HEK293 cells transfected with AKR1C3, coumberon 6×10^−6M, 3 h; read-out: Cellular AKR1C3 inhibition IC50
reported_metric: IC50 (nM)

C[C@]12CC[C@@H]3c4ccc(S(=O)(=O)CCCC(=O)O)cc4CC[C@H]3[C@@H]1CC=C2c1cncc(Cl)c1 [Example 19]
150
C[C@]12CC[C@@H]3c4ccc(NC(=O)CCC(N)=O)cc4CC[C@H]3[C@@H]1CC=C2c1cncc(F)c1 [Example 26]
150
C[C@]12CC[C@@H]3c4ccc(NS(=O)(=O)CCC(=O)O)cc4CC[C@H]3[C@@H]1CC=C2c1cncc(F)c1 [Example 39]
5100
Cc1ccncc1C1=CC[C@H]2[C@@H]3CCc4cc(S(=O)(=O)CCCC(=O)O)ccc4[C@H]3CC[C@]12C [Example 18]
1790
CN(CCCO)S(=O)(=O)c1ccc2c(c1)CC[C@@H]1[C@@H]2CC[C@]2(C)C(c3cncc(F)c3)=CC[C@@H]12 [Example 03]
50

(P) CN(CCC(=O)O)S(=O)(=O)c1ccc2c(c1)CC[C@@H]1[C@@H]2CC[C@]2(C)C(c3cncc(F)c3)=CC[C@@H]12 [Example 02]
(Q) C[C@]12CC[C@@H]3c4ccc(S(=O)(=O)CCCCO)cc4CC[C@H]3[C@@H]1CC=C2c1cncc(F)c1 [Example 21]
input: Of P and Q , which shows the smaller IC50 value? Pick one; state its label.
output: Q
(Q: 40 nM, P: 380 nM)

(a) C[C@]12CC[C@@H]3c4ccc(NC(=O)NCCC(=O)O)cc4CC[C@H]3[C@@H]1CC=C2c1cncc(F)c1 [Example 42]
(b) Cc1cncc(C2=CC[C@H]3[C@@H]4CCc5cc(S(=O)(=O)CCCC(=O)O)ccc5[C@H]4CC[C@]23C)c1 [Example 17]
(c) C[C@]12CC[C@@H]3c4ccc(S(=O)(=O)CCCC(=O)O)cc4CC[C@H]3[C@@H]1CC=C2c1cncc(F)c1 [Example 10]
input: Falling order of IC50, please. Output spec: labels arranged per the requested ranking.
output: a, c, b

(A) C[C@]12CC[C@@H]3c4ccc(S(=O)(=O)CCCC(=O)O)cc4CC[C@H]3[C@@H]1CC=C2c1cccnc1 [Example 12]
(B) COC(=O)CCCS(=O)(=O)c1ccc2c(c1)CC[C@@H]1[C@@H]2CC[C@]2(C)C(c3cncc(F)c3)=CC[C@@H]12 [Example 09]
input: Which of the two items, A and B , has the greater recorded IC50? Pick one; state its label.
output: A

// data source = patent US20170260226A1
